SYSTEM: T1, Gly-Asp-Asp-Asp-Asp-Lys-β-naphthylamide
T1 chain: GDDDDK
QUANTITY: kcat (s⁻¹)

{"columns": ["PROTEIN", "UNIT LABEL", "MEASUREMENT"],
 "data": [
  ["Medaka EP-1 serine protease domain mutant T105E (protein) VVGGVNAEKGAWPWMVSLHWRGRHGCGASLIGRDWLLTAAHCVYGKNTHLQYWSAVLGLHAQSSMNSQEVQIRQVDRIIINKNYNRREKEADIAMMHLQQPVNFTEWVLPVCLASEDQHFPAGRRCFIAGWGRDAEGGSLPDILQEAEVPLVDQDECQRLLPEYTFTSSMLCAGYPEGGVDSCQGDSGGPLMCLEDARWTLIGVTSFGVGCGRPERPGAYARVSAFTSWIAETRRSSFSDLD", "s⁻¹", 4.33],
  ["Bovine EP serine protease (New England Biolabs) (protein) IVGGSDSREGAWPWVVALYFDDQQVCGASLVSRDWLVSAAHCVYGRNMEPSKWKAVLGLHMASNLTSPQIETRLIDQIVINPHYNKRRKNNDIAMMHLEMKVNYTDYIQPICLPEENQVFPPGRICSIAGWGALIYQGSTADVLQEADVPLLSNEKCQQQMPEYNITENMVCAGYEAGGVDSCQGDSGGPLMCQENNRWLLAGVTSFGYQCALPNRPGVYARVPRFTEWIQSFLH", "s⁻¹", 25],
  ["Medaka EP-1 serine protease domain mutant P193E (protein) VVGGVNAEKGAWPWMVSLHWRGRHGCGASLIGRDWLLTAAHCVYGKNTHLQYWSAVLGLHAQSSMNSQEVQIRQVDRIIINKNYNRRTKEADIAMMHLQQPVNFTEWVLPVCLASEDQHFPAGRRCFIAGWGRDAEGGSLPDILQEAEVPLVDQDECQRLLPEYTFTSSMLCAGYEEGGVDSCQGDSGGPLMCLEDARWTLIGVTSFGVGCGRPERPGAYARVSAFTSWIAETRRSSFSDLD", "s⁻¹", 4.83]
]}
